test-method-notes: Pharmacokinetic study after oral administration in rats
Assay type: in vivo, male Wistar rats
details: Wistar, rat, plasma; oral 9 mg/kg, male adult rats, mean ± SEM, n = 3
experimental-endpoint: Cmax
Give the value; after it, write the unit.

Data point: Fc1ccc(-n2cc(-c3nn[nH]n3)cn2)cc1 ; Cmax = 16600 ng/mL

----------
test-method-notes: Pharmacokinetic study after intravenous bolus administration in rats
Type: in vivo, male Wistar rats
details: male, Wistar, rat, plasma, iv, 10 mg/kg, i.v. 10 mg/kg, male adult rats, mean ± SEM, n = 3
experimental-endpoint: half-life

Data point: Fc1ccc(-n2cc(-c3nn[nH]n3)cn2)cc1 ; half-life = ~3 h

----------
test-method-notes: Pharmacokinetic study after oral administration in rats
Assay type: in vivo, male Wistar rats
details: Wistar, rat, plasma; oral 36 mg/kg, male adult rats, mean ± SEM, n = 3
experimental-endpoint: Vd/F (L/kg)
Entry rule: numbers only, all in L/kg.

Data point: Fc1ccc(-n2cc(-c3nn[nH]n3)cn2)cc1 ; Vd/F = 1.16

----------
test-method-notes: Pharmacokinetic study after oral administration in rats
Format: in vivo, male Wistar rats
details: Wistar, rat, plasma; oral 9 mg/kg, male adult rats, mean ± SEM, n = 3
experimental-endpoint: Tmax (h)
Entry rule: numbers only, all in h.

Data point: Fc1ccc(-n2cc(-c3nn[nH]n3)cn2)cc1 ; Tmax = 1.66

----------
test-method-notes: Pharmacokinetic study after oral administration in rats
Format: in vivo, male Wistar rats
details: Wistar, rat, plasma; oral 36 mg/kg, male adult rats, mean ± SEM, n = 3; read-out: t1/2 (converted)
experimental-endpoint: half-life

Data point: Fc1ccc(-n2cc(-c3nn[nH]n3)cn2)cc1 [LQFM020] ; half-life = 6.74 h

----------
test-method-notes: Pharmacokinetic study after oral administration in rats
Type: in vivo, male Wistar rats
details: Wistar, rat, plasma; oral 9 mg/kg, male adult rats, mean ± SEM, n = 3
experimental-endpoint: Vd/F (L/kg)
Entry rule: numbers only, all in L/kg.

Data point: Fc1ccc(-n2cc(-c3nn[nH]n3)cn2)cc1 ; Vd/F = 0.86

----------
test-method-notes: Pharmacokinetic study after intravenous bolus administration in rats
Assay type: in vivo, male Wistar rats
details: male, Wistar, rat, plasma, iv, 10 mg/kg, i.v. 10 mg/kg, male adult rats, individual animals 1-3
experimental-endpoint: AUC(0-t) (µg·h/mL)
Entry rule: numbers only, all in µg·h/mL.

Data point: Fc1ccc(-n2cc(-c3nn[nH]n3)cn2)cc1 [LQFM020] ; AUC(0-t) = 1230

----------
test-method-notes: Pharmacokinetic study after oral administration in rats
Assay type: in vivo, male Wistar rats
details: Wistar, rat, plasma; oral 18 mg/kg, male adult rats, mean ± SEM, n = 3
experimental-endpoint: AUC(0-t) (µg·h/mL)
Entry rule: numbers only, all in µg·h/mL.

Data point: Fc1ccc(-n2cc(-c3nn[nH]n3)cn2)cc1 ; AUC(0-t) = 110

----------
test-method-notes: Pharmacokinetic study after oral administration in rats
Assay type: in vivo, male Wistar rats
details: Wistar, rat, plasma; oral 18 mg/kg, male adult rats, mean ± SEM, n = 3
experimental-endpoint: Vd/F (L/kg)
Entry rule: numbers only, all in L/kg.

Data point: Fc1ccc(-n2cc(-c3nn[nH]n3)cn2)cc1 ; Vd/F = 1.44

----------
test-method-notes: Pharmacokinetic study after intravenous bolus administration in rats
Assay type: in vivo, male Wistar rats
details: male, Wistar, rat, plasma, iv, 10 mg/kg, i.v. 10 mg/kg, male adult rats, individual animals 1-3
experimental-endpoint: half-life

Data point: Fc1ccc(-n2cc(-c3nn[nH]n3)cn2)cc1 [LQFM020] ; half-life = 170 min

Numbers sourced from paper PMC11983664.
